assay: In vitro antibacterial activity was determined by 2 fold serial agar dilution method with multilocular device in gram positive bacteria; type: functional
For each of the compounds below, state its MIC.
Numbers only, in µg/mL.

compound: CC(=O)OCC1=C(C(=O)O)N2C(=O)[C@@H](NC(=O)C(c3ccccc3)N(C)N)C2SC1 (stereo partly drawn)
unit_of_measurement: µg/mL
MIC: 1.33

compound: CC(=O)OCC1=C(C(=O)O)N2C(=O)[C@@H](NC(=O)[C@H](N)c3ccccc3)[C@H]2SC1
unit_of_measurement: µg/mL
MIC: 1.33

compound: NNC(C(=O)N[C@@H]1C(=O)N2C(C(=O)O)=C(Cl)CSC12)c1ccccc1 (stereo partly drawn)
unit_of_measurement: µg/mL
MIC: 1.33

Field: MIC. Fill in for each record below.
1. CC(=O)OCC1=C(C(=O)O)N2C(=O)[C@@H](NC(=O)C(NN)c3ccccc3)C2SC1 (stereo partly drawn)
2. CC1=C(C(=O)O)N2C(=O)[C@@H](NC(=O)C(c3ccccc3)N(C)N)C2SC1 (stereo partly drawn)
3. CC1=C(C(=O)O)N2C(=O)[C@@H](NC(=O)[C@H](N)c3ccccc3)[C@H]2SC1 [CEPHALEXIN ANHYDROUS]
4. CC1=C(C(=O)O)N2C(=O)[C@@H](NC(=O)C(NN)c3ccccc3)C2SC1 (stereo partly drawn)
5. N[C@@H](C(=O)N[C@@H]1C(=O)N2C(C(=O)O)=C(Cl)CS[C@H]12)c1ccccc1 [CEFACLOR ANHYDROUS]

1.68
6.74
0.58
12.5
0.16

Data provenance: ChEMBL document CHEMBL1122399
